System: Mus musculus
assay summary: Compound was tested for percentage survival of immunocompromized CF-1 mice infected […] albicans strain C-65 colony forming units at dose 25 mg/Kg
Type: functional
stated conditions: inhaled or nasal
measure name: survival at 25 mg/kg (%)

# molecule, measure name, measure unit, value reported
data = [
    ("CCC(CC)n1ncn(-c2ccc(N3CCN(c4ccc(OC[C@@H]5CO[C@@](Cn6cncn6)(c6ccc(F)cc6F)C5)cc4)CC3)cc2)c1=O", "survival at 25 mg/kg", "%", 30),
    ("CCC(C)n1ncn(-c2ccc(N3CCN(c4ccc(OC[C@H]5CO[C@](Cn6cncn6)(c6cc(F)cc(F)c6)O5)cc4)CC3)cc2)c1=O (stereo not given in full)", "survival at 25 mg/kg", "%", 0),
    ("CCC(C)n1ncn(-c2ccc(N3CCN(c4ccc(OC[C@H]5CO[C@](Cn6cncn6)(c6ccc(Cl)cc6Cl)O5)cc4)CC3)cc2)c1=O (stereo not given in full)", "survival at 25 mg/kg", "%", 0),
    ("CCC(C)n1ncn(-c2ccc(N3CCN(c4ccc(OC[C@@H]5CO[C@@](Cn6cncn6)(c6ccc(F)cc6F)C5)cc4)CC3)cc2)c1=O (single isomer, unassigned)", "survival at 25 mg/kg", "%", 40),
    ("OC(Cn1cncn1)(Cn1cncn1)c1ccc(F)cc1F", "survival at 25 mg/kg", "%", 40),
]
